FYI, the data here is from ChEMBL document CHEMBL2413015.

System: Rattus norvegicus
TEST_NAME: Activity at AChE in Charles Foster rat hypothalamus assessed as substrate hydrolyzed per mg of protein at 10 mg/kg, po for 8 days by Ellman's method (reference value: 40.50 +/- 0.76 mol/min)
Assay type: functional
PROPERTY_LABEL: Activity (mol/min)
Express your answer in mol/min, writing the number without its unit.

Challenge: Answer with reported Activity of O=C(N/N=C/c1ccc(O)cc1O)Nc1ccncc1
Response given: 32.5

Challenge: Supply measured Activity of COc1cc2c(cc1OC)C(=O)C(CC1CCN(Cc3ccccc3)CC1)C2 (stereo unspecified) [DONEPEZIL] in your reply.
Response given: 26.82

Challenge: In one line, give reported Activity of the entry O=C(NN=C(c1ccccc1)c1ccccc1)Nc1ccncc1 .
Response given: 29.17

Challenge: Note Activity for the compound shown: NNC(=O)Nc1ccncc1
Response given: 37.17

Challenge: Give recorded Activity. COc1ccc(/C=N/NC(=O)Nc2ccncc2)cc1
Response given: 36.83

Challenge: # return recorded Activity for input NC(=O)Nc1ccncc1
Response given: 37.33

Challenge: Supply recorded Activity for O=C(N/N=C/c1ccccc1O)Nc1ccncc1 here.
Response given: 34.67

Challenge: Kindly indicate its recorded Activity. Item: C/C(=N\NC(=O)Nc1ccncc1)c1ccc(O)cc1
Response given: 31.5

Challenge: Supply reported Activity belonging to this compound: COc1ccc(/C=N/NC(=O)Nc2ccncc2)cc1OC
Response given: 33.17

Challenge: Give Activity for the following compound: COc1cc(/C=N/NC(=O)Nc2ccncc2)ccc1O
Response given: 33.67

Challenge: Read the entry O=C(N/N=C/c1ccccc1)Nc1ccncc1 and write its reported Activity.
Response given: 35.83

====

TEST_TARGET: Acetylcholinesterase (Electrophorus electricus)
Sequence (O42275 whole entry): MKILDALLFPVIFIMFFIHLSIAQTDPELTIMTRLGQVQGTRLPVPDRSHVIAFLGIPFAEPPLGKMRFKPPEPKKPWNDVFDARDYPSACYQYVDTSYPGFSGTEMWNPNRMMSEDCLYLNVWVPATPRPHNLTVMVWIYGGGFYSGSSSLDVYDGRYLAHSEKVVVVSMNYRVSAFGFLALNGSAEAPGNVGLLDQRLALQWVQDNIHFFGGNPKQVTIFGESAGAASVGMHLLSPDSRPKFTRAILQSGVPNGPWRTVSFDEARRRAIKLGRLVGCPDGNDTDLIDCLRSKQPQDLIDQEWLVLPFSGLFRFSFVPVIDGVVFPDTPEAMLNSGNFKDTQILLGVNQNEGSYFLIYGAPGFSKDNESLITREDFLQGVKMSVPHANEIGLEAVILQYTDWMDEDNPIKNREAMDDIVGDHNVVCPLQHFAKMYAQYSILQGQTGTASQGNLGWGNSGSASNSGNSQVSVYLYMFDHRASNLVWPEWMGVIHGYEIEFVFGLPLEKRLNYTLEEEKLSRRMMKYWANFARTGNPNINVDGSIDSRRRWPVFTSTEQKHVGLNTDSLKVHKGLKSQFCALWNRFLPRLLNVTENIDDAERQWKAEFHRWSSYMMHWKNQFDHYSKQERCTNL
TEST_NAME: Inhibition of electric eel AChE using acetylthiocholine iodide as substrate preincubated for 20 mins prior to substrate addition by Ellman's method
PROTOCOL_CONDITIONS: read-out: pIC50 (converted)
PROPERTY_LABEL: IC50 (µM)
Report only the number, with the unit µM understood.

Challenge: Note down IC50 recorded for COc1cc(/C=N/NC(=O)Nc2ccncc2)ccc1O
Response given: 19.1

Challenge: Query IC50 for C/C(=N\NC(=O)Nc1ccncc1)c1ccc(O)cc1
Response given: 0.148

Challenge: Determine from records and report IC50 for COc1ccc(/C=N/NC(=O)Nc2ccncc2)cc1
Response given: 49

Challenge: Given O=C(N/N=C/c1ccccc1O)Nc1ccncc1 , respond with its IC50.
Response given: 33.1

====

System: Rattus norvegicus
TEST_NAME: Activity at AChE in Charles Foster rat hippocampus assessed as substrate hydrolyzed per mg of protein at 10 mg/kg, po for 8 days by Ellman's method (reference value: 47.50 +/- 0.84 mol/min)
Format: functional
PROPERTY_LABEL: Activity (mol/min)
Numeric answer only, unit mol/min assumed.

Challenge: Look up Activity of COc1cc2c(cc1OC)C(=O)C(CC1CCN(Cc3ccccc3)CC1)C2 (stereo unspecified) [DONEPEZIL] and report it.
Response given: 30.86

Challenge: Identify measured Activity corresponding to COc1ccc(/C=N/NC(=O)Nc2ccncc2)cc1
Response given: 37.5

Challenge: Please report the measured Activity for COc1cc(/C=N/NC(=O)Nc2ccncc2)ccc1O
Response given: 36.83

Challenge: Quickly give me recorded Activity for O=C(NN=C(c1ccccc1)c1ccccc1)Nc1ccncc1
Response given: 32

Challenge: Report Activity for NNC(=O)Nc1ccncc1
Response given: 43.67

Challenge: Could you please provide reported Activity for O=C(N/N=C/c1ccccc1O)Nc1ccncc1 ? Thanks!
Response given: 36.83

Challenge: Answer with the recorded Activity of COc1ccc(/C=N/NC(=O)Nc2ccncc2)cc1OC only.
Response given: 35.83

Challenge: Give me measured Activity, please, for this molecule: O=C(N/N=C/c1ccc(O)cc1O)Nc1ccncc1
Response given: 35.03

Challenge: Indicate the recorded Activity value for this molecule: NC(=O)Nc1ccncc1
Response given: 44.17

Challenge: Name the recorded Activity of the item C/C(=N\NC(=O)Nc1ccncc1)c1ccc(O)cc1 in your answer.
Response given: 34.17

Challenge: Entry O=C(N/N=C/c1ccccc1)Nc1ccncc1 needs its Activity filled in; supply it.
Response given: 41
